system: Hepatoblastoma cell line; assay: Effective concentration against Hepatitis B virus in human hepatoblastoma cell line; type: functional
quantity: EC90 (nM)
State just the number; it will be interpreted in nM.

Guide cases for EC90, answers given:
> print(dat)
                           structure.string  quantity  data.value
1       Nc1ccn([C@@H]2CS[C@H](CO)O2)c(=O)n1      EC90         209
2  Nc1ncnc2c1ncn2[C@@H]1C[C@H](O)[C@@H](O)[C@H]1O      EC90        9600
3   Nc1ncnc2c1ncn2[C@@H]1CC[C@@H](O)[C@H]1O      EC90         978

Consider the additional compound presented here.
(Q) Which EC90 value belongs to `Nc1ncnc2c1ncn2[C@H]1C=C[C@H](O)[C@@H]1O` ?
(A) 1400

###

test: Selectivity index was evaluated [Selectivity = (CC50 / EC50) against Hepatitis B virus in human hepatoblastoma cell line]; assay type: functional
quantity: SI
I'd appreciate a reply containing only the number, no unit.

> print(dat)
                          structure.string  data.value
1  Nc1ncnc2c1ncn2[C@@H]1CC[C@@H](O)[C@H]1O          95

(Q) Which SI value belongs to `Nc1ncnc2c1ncn2[C@@H]1C[C@H](O)[C@@H](O)[C@H]1O` ?
(A) 46

(Q) Which SI value belongs to `Nc1ccn([C@@H]2CS[C@H](CO)O2)c(=O)n1` ?
(A) 9014

(Q) Which SI value belongs to `Nc1ncnc2c1ncn2[C@H]1C=C[C@H](O)[C@@H]1O` ?
(A) 232
